- test.summary: activity coefficient (dimensionless); of the first substance listed, at infinite dilution; xn = mol fraction of the nth substance listed
- recorded.conditions: 343.15 K; Liquid; Chromatography; x1 = 0
Catalogue of activity coefficient readings, one per entry.
readout: activity coefficient

* CCCCCCCC [octane] + CCCOC[n+]1ccn(C)c1.N#C[N-]C#N | 112
* c1ccccc1 [benzene] + CCCOC[n+]1ccn(Cc2ccccc2)c1.F[B-](F)(F)F | 1.99
* c1ccsc1 [thiophene] + CCCOC[n+]1ccn(C)c1.F[B-](F)(F)F | 2.27
* CC1CCCC1 [methylcyclopentane] + CCCOC[n+]1ccn(Cc2ccccc2)c1.N#C[N-]C#N | 13.5
* CCN(CC)CC [triethylamine] + CCCOC[n+]1ccn(C)c1.N#C[N-]C#N | 24.8
* CC(C)CC(C)(C)C [2,2,4-trimethylpentane] + CCCCCCCCn1cc[n+](COCCCOC[n+]2ccn(CCCCCCCC)c2C)c1C.N#C[N-]C#N.N#C[N-]C#N | 9.74
* CCCC(C)=O [pentan-2-one] + CCCOC[n+]1ccn(C)c1.N#C[N-]C#N | 2.32
* CCCCCCC [heptane] + CCCCCCCCn1cc[n+](COCCCOC[n+]2ccn(CCCCCCCC)c2C)c1C.N#C[N-]C#N.N#C[N-]C#N | 8.8

----------
- test.summary: activity coefficient (dimensionless); of the first substance listed, at infinite dilution; xn = mol fraction of the nth substance listed
- recorded.conditions: 343.15 K; Liquid; Chromatography; x1 = 0
Catalogue of activity coefficient readings, one per entry.
readout: activity coefficient

• C#CCCCC [1-hexyne] + CCCCCCCCn1cc[n+](COCCCOC[n+]2ccn(CCCCCCCC)c2C)c1C.N#C[N-]C#N.N#C[N-]C#N = 1.63
• C#CCCCCC [1-heptyne] + CCCOC[n+]1ccn(C)c1.N#C[N-]C#N = 10.7
• C1CCCCCC1 [cycloheptane] + CCCOC[n+]1ccc(N(C)C)cc1.O=S(=O)([N-]S(=O)(=O)C(F)(F)F)C(F)(F)F = 31.7
• ClCCl [dichloromethane] + CCCOC[n+]1ccc(N(C)C)cc1.O=S(=O)([N-]S(=O)(=O)C(F)(F)F)C(F)(F)F = 0.63
• c1ccsc1 [thiophene] + CCCCCCCCn1cc[n+](COCCCOC[n+]2ccn(CCCCCCCC)c2C)c1C.N#C[N-]C#N.N#C[N-]C#N = 0.51
• c1ccccc1 [benzene] + Cn1cc[n+](COCCCOC[n+]2ccn(C)c2)c1.N#C[N-]C#N.N#C[N-]C#N = 3.08
• CCCCCCCCC [nonane] + CCCCCCCCn1cc[n+](COCCC)c1C.N#C[N-]C#N = 13.1

----------
- test.summary: activity coefficient (dimensionless); of the first substance listed, at infinite dilution; xn = mol fraction of the nth substance listed
- recorded.conditions: 323.15 K; Liquid; Chromatography; x1 = 0
Catalogue of activity coefficient readings, one per entry.
readout: activity coefficient

- CC#N [acetonitrile] + CCCOC[n+]1ccn(Cc2ccccc2)c1.O=S(=O)([N-]S(=O)(=O)C(F)(F)F)C(F)(F)F: 0.39
- CCCCCCCCCC [decane] + CCCOC[n+]1ccn(C)c1.N#C[N-]C#N: 372
- ClCCl [dichloromethane] + CCCCCCCCn1cc[n+](COCCC)c1C.O=S(=O)([N-]S(=O)(=O)C(F)(F)F)C(F)(F)F: 0.42
- CCCCCCCCCCCCC [tridecane] + CCCOC[n+]1ccn(C)c1.N#C[N-]C#N: 1150

Data provenance is the NIST ThermoML archive (doi:10.1016/j.fluid.2014.11.020).
